Taken from the supplement of paper PMC4022240.

# Target: HaloTag-ING2 PHD (mouse Ing2 200-280)
# Run Description: peptide microarray binding signal (635 nm), min-max normalized on array (fraction of array maximum); higher = stronger binding
# Experimental Setup: peptide region: Unmod H4 variant; binder concentration: 100 nM
Response key: condition met means peptide microarray binding signal >= 0.01; condition not met means peptide microarray binding signal < 0.01.

Binder	Class Assignment
ISGLIYEETRGVL [Unmod H4 variant I S G L I Y E E T R G V L]	condition not met
GGKGLGKGGAKRH [Unmod H4 variant G G K G L G K G G A K R H]	condition met
IQGITKPAIRRLA [Unmod H4 variant I Q G I T K P A I R R L A]	condition met
KRHRKVLRDNIQG [Unmod H4 variant K R H R K V L R D N I Q G]	condition met
TYTEHAKRKTVTA [Unmod H4 variant T Y T E H A K R K T V T A]	condition met
SGRGKGGKGLGKG [Unmod H4 variant S G R G K G G K G L G K G]	condition met
GKGGAKRHRKVLR [Unmod H4 variant G K G G A K R H R K V L R]	condition not met
IRDAVTYTEHAKR [Unmod H4 variant I R D A V T Y T E H A K R]	condition met
FLENVIRDAVTYT [Unmod H4 variant F L E N V I R D A V T Y T]	condition met
